- Tested on: LOX IMVI melanoma
- assayExplanation: NCI-60 one-dose screen, 48 h (100 = growth as untreated, 0 = no growth, -100 = all killed)
- conditionContext: 10 µM unless noted
About 83,000 compounds went through this panel and 20% of them were active in at least one assay; those are over-represented in the sample as a whole.
Binarize growth at 20%; below is label 1, at or above is label 0.

- compound: "O=CC(OC(=O)c1ccccc1)C(OC(=O)c1ccccc1)C(COC(c1ccccc1)(c1ccccc1)c1ccccc1)OC(=O)c1ccccc1 (stereo not given)"
  classAssignment: "label 1"
- compound: "COc1cc2ncnc(Nc3ccc(O)cc3)c2cc1OC"
  classAssignment: "label 0"
- compound: "CNC(=O)c1cc(Oc2cccc3nc(Nc4ccc(Oc5ccccc5)cc4)ccc23)ccn1"
  classAssignment: "label 0"
- compound: "Cn1cc(-c2cnn3c(N)c(Br)c([C@@H]4CCCNC4)nc23)cn1"
  classAssignment: "label 0"
- compound: "CO/C=C/C(=O)c1cc2cnc3c(=N)cc(NC(=O)C(C)C)c([nH]1)c23"
  classAssignment: "label 1"
